- Test: in vivo
- Recorded Conditions: mouse, ip, single administration i.p., female NMRI mice, approximate values
Measurement Type: LD50 (mg/kg)
Your answer is read as mg/kg, so omit the unit and give the number.

Output LD50 of CCCNCC(O)COc1ccccc1C(=O)CCc1cccn1C (stereo not shown) [Example 4] 46.4

Output LD50 of CC(C)NCC(O)COc1ccccc1C(=O)CCc1ccn(C)c1 (stereo not shown) [Example 7] 46.4

Output LD50 of CC(C)NCC(O)COc1ccccc1C(=O)CCc1cccn1C (stereo not shown) [Example 3] 68.1

Output LD50 of CC(C)N(CC(O)COc1ccccc1C(=O)CCc1cccn1C)C(C)C (stereo not shown) [Example 5] 68.1

Output LD50 of CCC(C)(C)NCC(O)COc1ccccc1C(=O)CCc1cnn(C)c1 (stereo not shown) [Example 12] 68.1

Output LD50 of CCCNCC(O)COc1ccccc1C(=O)CCc1cnn(C)c1 (stereo not shown) [Example 9] 31.6

Output LD50 of CCC(C)(C)NCC(O)COc1ccccc1C(=O)CCc1ccccc1 (stereo not shown) [diprafenone, reference compound] 68.1

Attribution: patent US5118685A
